system: UACC-257; assay: NCI tumour cell line growth inhibition, 48 h
The source made the active and inactive calls. No stated cut-off is given here; in the data, active = GI50 up to about 1.1 µM and inactive = higher.
Quantity: GI50

{"columns": ["Compound", "Observed Measurement"],
 "data": [
  ["Cc1c(S(=O)(=O)N/C(N)=N/c2ccc(Cl)cc2)sc2ccc(Cl)cc12", "18.1 µM (inactive)"],
  ["O=S(=O)(c1ccccc1)N1CN2CN(C1)CN(S(=O)(=O)c1ccccc1)C2", "> 100 µM (inactive)"],
  ["O=C(NC(=S)Nc1ccc2c(c1)Sc1ccccc1O2)c1ccc([N+](=O)[O-])cc1", "> 100 µM (inactive)"],
  ["CN(C)c1ccc(/C=C(\\NC(=O)c2ccccc2)C(=O)Nc2ccccc2C(=O)NCc2ccccc2)cc1", "36.1 µM (inactive)"],
  ["O=C(c1ccco1)N(C(=S)OCCOc1ccccc1)c1ccccc1", "17.9 µM (inactive)"],
  ["Cc1cc2nnc(C(N)=O)c(N)c2cc1C", "> 100 µM (inactive)"],
  ["Cc1[nH]c(/C=C2\\C(=O)Nc3ccccc32)c(C)c1CCC(=O)O [ORANTINIB]", "23.7 µM (inactive)"],
  ["COc1cc(C2c3cc4c(cc3OC(NCCc3ccccc3)C2C)OCO4)cc(OC)c1OC (stereo not given)", "6.34 µM (inactive)"],
  ["CCc1nc2cc(F)ccc2[nH]c1=O", "> 100 µM (inactive)"],
  ["COc1ccc(NC(S)=Nc2ccccc2)cc1", "39.4 µM (inactive)"]
]}
